Data provenance is paper PMC3702004.

System: Cyp1a1 mRNA in liver
Assay: Cyp1a1 gene expression in liver (real-time PCR)
Type: in vivo, female C57BL/6 mice
Conditions: relative to TCDD; dose metric Syst liver (ng/g lipid)
Protocol: Animals. Eight-week-old female C57BL/6 mice (Harlan laboratories, Venray, the Netherlands) were randomly assigned to treatment groups (six animals per group) and allowed to acclimate for 1.5 weeks. […] RNA isolation and quantitative real-time polymerase chain reaction (PCR). […] Purity and concentration of the isolated RNA was determined by measuring the absorbance ratio at 260/280 nm and 230/260 nm with a Nanodrop 2000 spectrophotometer (Thermo Scientific, Asheville, NC, USA). […]
experimental readout: REP Liver Cyp1a1 mRNA
Answers are plain numbers.

Consider the following illustrative entries.
Qu. Supply reported REP Liver Cyp1a1 mRNA belonging to this molecule: `Clc1ccc(-c2cc(Cl)c(Cl)cc2Cl)cc1Cl`
Ans. 0.00005

Qu. Write down REP Liver Cyp1a1 mRNA measured for item `Clc1ccc(-c2cc(Cl)c(Cl)c(Cl)c2)cc1Cl`
Ans. 0.001

Qu. Tell me its REP Liver Cyp1a1 mRNA given Clc1cc2c(cc1Cl)Oc1cc(Cl)c(Cl)cc1O2 [TCDD, 2,3,7,8-tetrachlorodibenzodioxin, reference compound] as the entry.
Ans. 1

Qu. Read the entry `Clc1cc2c(cc1Cl)Oc1c(cc(Cl)c(Cl)c1Cl)O2` and write its reported REP Liver Cyp1a1 mRNA.
Ans. 0.4

Shifting focus to the molecule that follows.
Qu. Give me measured REP Liver Cyp1a1 mRNA, please, for this molecule: `Clc1ccc(-c2cc(Cl)c(Cl)c(Cl)c2Cl)cc1Cl`
Ans. 0.0001
